TARGET: human GR (Homo sapiens, UniProt P04150)
Sequence (P04150 whole entry): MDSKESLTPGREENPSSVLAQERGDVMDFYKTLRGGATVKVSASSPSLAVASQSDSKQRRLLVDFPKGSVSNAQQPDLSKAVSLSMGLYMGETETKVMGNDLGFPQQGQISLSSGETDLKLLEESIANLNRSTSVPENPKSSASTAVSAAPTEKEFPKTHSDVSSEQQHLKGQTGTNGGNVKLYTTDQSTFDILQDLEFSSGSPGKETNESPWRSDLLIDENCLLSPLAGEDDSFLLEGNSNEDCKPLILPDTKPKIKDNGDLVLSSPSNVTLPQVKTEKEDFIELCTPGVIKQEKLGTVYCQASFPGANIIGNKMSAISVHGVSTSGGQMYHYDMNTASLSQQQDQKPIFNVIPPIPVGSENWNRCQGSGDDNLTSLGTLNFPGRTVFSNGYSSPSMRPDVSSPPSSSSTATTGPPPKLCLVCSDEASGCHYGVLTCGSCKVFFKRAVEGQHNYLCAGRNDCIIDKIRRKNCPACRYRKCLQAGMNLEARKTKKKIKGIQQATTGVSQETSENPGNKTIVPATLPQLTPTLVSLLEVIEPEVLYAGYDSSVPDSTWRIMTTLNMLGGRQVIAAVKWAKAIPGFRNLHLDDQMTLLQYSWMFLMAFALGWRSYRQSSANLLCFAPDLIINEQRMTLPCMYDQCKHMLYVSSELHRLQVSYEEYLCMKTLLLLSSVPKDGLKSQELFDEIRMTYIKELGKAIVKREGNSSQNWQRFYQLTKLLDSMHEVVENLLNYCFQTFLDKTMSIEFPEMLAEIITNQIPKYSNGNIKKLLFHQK
MEASUREMENT DESCRIPTION: Transrepression Assay (GITAR), TNFα-β-lactamase reporter gene in U937 cells
Assay type: cell-based
Parameters: U937 cells contain an endogenous glucocorticoid receptor (GR); endogenous in cells; host or cells: U937 cells stably transfected with the TNF-α promoter/β-lactamase reporter only
CONDITIONS USED: Table 1; U937 cells; IP = inflection point; read-out: Transrepression U937 Cells GITAR IP
Source text: Transrepression Assay (GITAR) This assay assesses the ability of test compounds to control transcription from the TNFα-β-lactamase reporter gene in U937 cells, a human myelomonocytic leukemia cell line that naturally expresses the human GR. The assay measures compound dependent-repression of the TNFa promoter linked to a reporter gene. The human U937 cells that had been stably transfected with the TNF-α promoter driving β-lactamase are used for this assay. […]

{"CPD SMILES": "C[C@]12Cc3cnn(-c4ccc(F)cc4)c3C=C1CC[C@@]2(O)CCc1cccc(F)c1CNS(=O)(=O)C(Cl)Cl", "TARGET": "human GR (Homo sapiens, UniProt P04150)", "EC50, nM": 182}
{"CPD SMILES": "COc1cccc(CC[C@]2(O)CCC3=Cc4c(cnn4-c4ccc(F)cc4)C[C@@]32C)c1C(N)=O", "TARGET": "human GR (Homo sapiens, UniProt P04150)", "EC50, nM": 23}
{"CPD SMILES": "Cc1cccc(CC[C@]2(O)CCC3=Cc4c(cnn4-c4cccc(F)c4)C[C@@]32C)c1C(N)=O", "TARGET": "human GR (Homo sapiens, UniProt P04150)", "EC50, nM": 33}
{"CPD SMILES": "C[C@]12Cc3cnn(-c4ccc(F)cc4)c3C=C1CC[C@@]2(O)CCc1ccccc1C(=O)N1CCCCC1", "TARGET": "human GR (Homo sapiens, UniProt P04150)", "EC50, nM": 248}
{"CPD SMILES": "CN(C)S(=O)(=O)NCc1c(F)cccc1CC[C@]1(O)CCC2=Cc3c(cnn3-c3ccc(F)cc3)C[C@@]21C", "TARGET": "human GR (Homo sapiens, UniProt P04150)", "EC50, nM": 64}
{"CPD SMILES": "CCS(=O)(=O)Nc1ccccc1CC[C@]1(O)CCC2=Cc3c(cnn3-c3ccc(F)cc3)C[C@@]21C", "TARGET": "human GR (Homo sapiens, UniProt P04150)", "EC50, nM": 199}
{"CPD SMILES": "CC(C)(C)CNC(=O)c1c(F)cccc1CC[C@]1(O)CCC2=Cc3c(cnn3-c3ccc(F)cc3)C[C@@]21C", "TARGET": "human GR (Homo sapiens, UniProt P04150)", "EC50, nM": 187}
{"CPD SMILES": "CCCNC(=O)c1c(F)cccc1CC[C@]1(O)CCC2=Cc3c(cnn3-c3ccc(F)cc3)C[C@@]21C", "TARGET": "human GR (Homo sapiens, UniProt P04150)", "EC50, nM": 30}
{"CPD SMILES": "COC(=O)C(C)(C)NC(=O)c1ccccc1CC[C@]1(O)CCC2=Cc3c(cnn3-c3ccc(F)cc3)C[C@@]21C", "TARGET": "human GR (Homo sapiens, UniProt P04150)", "EC50, nM": 154}
{"CPD SMILES": "C[C@]12Cc3cnn(-c4ccc(F)c(F)c4)c3C=C1CC[C@@]2(O)CCc1ccccc1C(N)=O", "TARGET": "human GR (Homo sapiens, UniProt P04150)", "EC50, nM": 139}
{"CPD SMILES": "CCCNC(=O)c1ccccc1CC[C@]1(O)CCC2=Cc3c(cnn3-c3ccc(F)cc3)C[C@@]21C", "TARGET": "human GR (Homo sapiens, UniProt P04150)", "EC50, nM": 127}
{"CPD SMILES": "CCNC(=O)c1ccccc1CC[C@]1(O)CCC2=Cc3c(cnn3-c3ccc(F)cc3)C[C@@]21C", "TARGET": "human GR (Homo sapiens, UniProt P04150)", "EC50, nM": 88}
{"CPD SMILES": "COC(=O)C1(NC(=O)c2ccccc2CC[C@]2(O)CCC3=Cc4c(cnn4-c4ccc(F)cc4)C[C@@]32C)CC1", "TARGET": "human GR (Homo sapiens, UniProt P04150)", "EC50, nM": 123}
{"CPD SMILES": "C=C(C)CNC(=O)c1ccccc1CC[C@]1(O)CCC2=Cc3c(cnn3-c3ccc(F)cc3)C[C@@]21C", "TARGET": "human GR (Homo sapiens, UniProt P04150)", "EC50, nM": 277}
{"CPD SMILES": "C[C@]12Cc3cnn(-c4ccc(F)cc4)c3C=C1CC[C@@]2(O)CCc1cccc(F)c1CNS(=O)(=O)C1CC1", "TARGET": "human GR (Homo sapiens, UniProt P04150)", "EC50, nM": 90}
